target: UniProt:P28647
Sequence (P28647 whole entry): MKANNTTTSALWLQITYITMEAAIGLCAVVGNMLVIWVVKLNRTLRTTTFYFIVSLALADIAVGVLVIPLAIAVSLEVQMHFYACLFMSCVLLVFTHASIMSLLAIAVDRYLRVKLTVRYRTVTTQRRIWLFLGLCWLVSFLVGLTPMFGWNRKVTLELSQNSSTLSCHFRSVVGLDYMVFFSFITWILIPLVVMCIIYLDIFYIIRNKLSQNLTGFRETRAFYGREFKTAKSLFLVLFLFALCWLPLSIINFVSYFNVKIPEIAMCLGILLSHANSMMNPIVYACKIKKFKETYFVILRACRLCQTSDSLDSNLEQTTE
Measured pKi, listed per entry.
Just so you know, pKi here is -log10 of the concentration in molar units; reply with that number alone.

> print(dat)
                         structure.notation          system  observed.measurement
1  CCNC(=O)[C@H]1O[C@@H](n2cnc3c(NC(=O)c4ccccc4)ncnc32)[C@H](O)[C@@H]1O  UniProt:P28647                  6.08
2  CCNC(=O)[C@H]1O[C@@H](n2cnc3c(NC(=O)c4ccc(-c5ccccc5)cc4)ncnc32)[C@H](O)[C@@H]1O  UniProt:P28647                  6.01
3  CCNC(=O)[C@H]1O[C@@H](n2cnc3c(N(C(=O)Nc4ccc(Cl)cn4)C(=O)Nc4ccc(Cl)cn4)ncnc32)[C@H](O)[C@@H]1O  UniProt:P28647                  5.24
4  CCNC(=O)[C@H]1O[C@@H](n2cnc3c(NC(=O)Nc4cc(C)on4)ncnc32)[C@H](O)[C@@H]1O  UniProt:P28647                  6.27
5  CCNC(=O)[C@H]1O[C@@H](n2cnc3c(NC(=O)N[C@H](C)c4ccccc4)ncnc32)[C@H](O)[C@@H]1O  UniProt:P28647                  7.79
6  CCNC(=O)[C@H]1O[C@@H](n2cnc3c(NC(=O)Nc4ccc(C(C)=O)cc4)ncnc32)[C@H](O)[C@@H]1O  UniProt:P28647                  7.68
7  CCNC(=O)[C@H]1O[C@@H](n2cnc3c(NC(=O)Nc4nncs4)ncnc32)[C@H](O)[C@@H]1O  UniProt:P28647                  5.26
8  CCCOc1ccc(NC(=O)Nc2ncnc3c2ncn3[C@@H]2O[C@H](C(=O)NCC)[C@@H](O)[C@H]2O)cc1  UniProt:P28647                  6.97

Could you now look at the following molecule, please?
Give the measured pKi of CCNC(=O)[C@H]1O[C@@H](n2cnc3c(NC(=O)c4ccc(OC)cc4)ncnc32)[C@H](O)[C@@H]1O .
6.08
